# Method summary: Delivery vehicle size and polydispersity by dynamic light scattering
# Type: physicochemical
# Run parameters: DLS in PBS; peptoid:DSPC:Cholesterol:DMG-PEG2000 weight ratio 20:1.79:7.16:1.84, mRNA
Starred links: 1 amine or outer side, 2 acyl side, 3 side chain; linkers in the order of their positions; H or OH if unused. Non-standard residues stand in square brackets, D forms with d. Residues, ends and D or L forms follow the SMILES beside them. Gly(N-(3-decanoyloxypropyl)) = CCCCCCCCCC(=O)OCCCNCC(=O)O; N(3-lauroyloxypropyl)Gly = CCCCCCCCCCCC(=O)OCCCNCC(=O)O; N(3-imidazol-1-ylpropyl)Gly = O=C(O)CNCCCn1ccnc1; X4 = CCCCCCCCCCCC(=O)OCCN(CC(=O)[*:2])[*:1]; N(2-ethylhexyl)Gly = CCCCC(CC)CNCC(=O)O; N(CH(CH2OH)2)Gly = O=C(O)CNC(CO)CO; N(octyl)Gly = CCCCCCCCNCC(=O)O; NHexGly = CCCCCCNCC(=O)O
Tag: Fulfilled if measured PDI is not below 0.1, Not fulfilled if it is.

// below: answered compounds
Compound | Label value
CCCCCCCCCCCC(=O)OCCN(CC(=O)N(CC(=O)N(CC(=O)N(CCOC(=O)CCCCCCCCCCC)CC(=O)N(CC(N)=O)CC(CC)CCCC)CC(CC)CCCC)CC(CC)CCCC)C(=O)CN(CC(CC)CCCC)C(=O)CNC(CO)CO (centres unmarked) [Compound 3] (H-[N(CH(CH2OH)2)Gly][N(2-ethylhexyl)Gly][X4][N(2-ethylhexyl)Gly][N(2-ethylhexyl)Gly][X4][N(2-ethylhexyl)Gly]-NH2) | Not fulfilled
CCCCCCCCCC(=O)OCCCN(CC(=O)N(CC(N)=O)CC(CC)CCCC)C(=O)CN(CCCCCCCC)C(=O)CN(CC(CC)CCCC)C(=O)CN(CCCOC(=O)CCCCCCCCC)C(=O)CN(CCCCCCCC)C(=O)CNC(CO)CO (centres unmarked) [Compound 32] (H-[N(CH(CH2OH)2)Gly][N(octyl)Gly][Gly(N-(3-decanoyloxypropyl))][N(2-ethylhexyl)Gly][N(octyl)Gly][Gly(N-(3-decanoyloxypropyl))][N(2-ethylhexyl)Gly]-NH2) | Fulfilled
CCCCCCCCCCCC(=O)OCCCN(CC(=O)N(CCCOC(=O)CCCCCCCCCCC)CC(=O)N(CCCCCC)CC(=O)N(CCCOC(=O)CCCCCCCCCCC)CC(=O)N(CCCOC(=O)CCCCCCCCCCC)CC(=O)N(CCCCCC)CC(N)=O)C(=O)CNCCCn1ccnc1 [Compound 73] (H-[N(3-imidazol-1-ylpropyl)Gly][N(3-lauroyloxypropyl)Gly][N(3-lauroyloxypropyl)Gly][NHexGly][N(3-lauroyloxypropyl)Gly][N(3-lauroyloxypropyl)Gly][NHexGly]-NH2) | Fulfilled

# ---- query compound ----
State whether the measured PDI reaches 0.1, counting equality as reaching it, for CCCCCCCCCC(=O)OCCCN(CC(=O)N(CC(=O)N(CC(=O)N(CCCOC(=O)CCCCCCCCC)CC(=O)N(CC(N)=O)CC(CC)CCCC)CC(CC)CCCC)CC(CC)CCCC)C(=O)CN(CC(CC)CCCC)C(=O)CNCCCn1ccnc1 (centres unmarked) [Compound 107] (H-[N(3-imidazol-1-ylpropyl)Gly][N(2-ethylhexyl)Gly][Gly(N-(3-decanoyloxypropyl))][N(2-ethylhexyl)Gly][N(2-ethylhexyl)Gly][Gly(N-(3-decanoyloxypropyl))][N(2-ethylhexyl)Gly]-NH2)
Fulfilled
